# STUDY SYSTEM: recombinant human Cathepsin K (Homo sapiens (Human), UniProt P43235)
# Sequence (P43235 115-329): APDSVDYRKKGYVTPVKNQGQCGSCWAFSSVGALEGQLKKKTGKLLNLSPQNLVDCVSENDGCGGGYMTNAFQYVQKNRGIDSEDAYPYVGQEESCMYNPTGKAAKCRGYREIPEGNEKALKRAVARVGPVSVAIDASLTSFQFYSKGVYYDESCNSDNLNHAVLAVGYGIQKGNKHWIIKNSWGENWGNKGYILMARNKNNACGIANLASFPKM
# PROTOCOL: Inhibition of Human Cathepsin K
# REPORTED CONDITIONS: substrate Z-Gly-Pro-Arg-AMC, 60 min room temperature
pIC50: −log10 of the molar value.
Assign 1 to entries whose pIC50 meets or exceeds 6; assign 0 to the rest.

Please review the entries below; each comes with its answer.
{"columns": ["SMILES TEXT", "STUDY SYSTEM", "CLASS NAME"],
 "data": [
  ["CN1C(=O)Cc2ccc(-c3ccc(C[C@@H](C#N)NC(=O)C45CCC(CC4)CN5)cc3)cc21", "recombinant human Cathepsin K (Homo sapiens (Human), UniProt P43235)", 0],
  ["CN1C(=O)Cc2ccc(-c3ccc(C[C@@H](C#N)NC(=O)[C@@]45CCO[C@@H](CN4)C5)cc3)cc21", "recombinant human Cathepsin K (Homo sapiens (Human), UniProt P43235)", 0],
  ["N#C[C@H](Cc1ccc(-c2ccc3c(c2)NC(=O)C3)cc1F)NC(=O)C12CCC(CC1)CN2", "recombinant human Cathepsin K (Homo sapiens (Human), UniProt P43235)", 1]
]}

Field: next compound
Hello, I need to know if "CC1(C)OC(=O)c2ccc(-c3ccc(C[C@@H](C#N)NC(=O)C45CCC(CC4)CN5)c(F)c3)cc21" has measured pIC50 not below 6. Thanks!
0

---

# STUDY SYSTEM: recombinant human DPPI (Homo sapiens (Human))
# Sequence (P53634 231-394): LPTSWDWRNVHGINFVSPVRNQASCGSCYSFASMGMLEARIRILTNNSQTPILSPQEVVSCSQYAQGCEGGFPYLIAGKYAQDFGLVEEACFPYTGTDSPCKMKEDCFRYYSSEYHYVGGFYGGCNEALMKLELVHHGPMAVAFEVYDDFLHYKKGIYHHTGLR
# Sequence (P53634 395-463): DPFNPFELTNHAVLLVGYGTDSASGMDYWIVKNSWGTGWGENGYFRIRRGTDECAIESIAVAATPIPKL
# Sequence (P53634 25-134): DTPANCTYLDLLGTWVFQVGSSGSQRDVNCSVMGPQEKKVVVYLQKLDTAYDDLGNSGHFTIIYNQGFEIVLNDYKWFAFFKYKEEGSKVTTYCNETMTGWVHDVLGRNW
# PROTOCOL: Inhibition of Human DPPI (Cathepsin C)
# REPORTED CONDITIONS: substrate Gly-Arg-AMC, 30 min room temperature
Threshold 20 nM. IC50 below it: Yes. IC50 at it or above: No.

The examples below pair each entry with its known result.
{"columns": ["COMPOUND", "STUDY SYSTEM", "CLASS NAME"],
 "data": [
  ["CN1Cc2cc(-c3ccc(C[C@@H](C#N)NC(=O)C45CCC(CC4)CN5)cc3)ccc2C1=O", "recombinant human DPPI (Homo sapiens (Human))", "No"],
  ["N#C[C@H](Cc1ccc(-c2ccc3c(c2)NC(=O)C3)cc1F)NC(=O)C12CCC(CC1)CN2", "recombinant human DPPI (Homo sapiens (Human))", "Yes"],
  ["CN1C(=O)Cc2ccc(-c3ccc(C[C@@H](C#N)NC(=O)C45CCC(CC4)CN5)cc3)cc21", "recombinant human DPPI (Homo sapiens (Human))", "Yes"],
  ["CN1C(=O)C(C)(C)c2ccc(-c3ccc(C[C@@H](C#N)NC(=O)C45CCC(CC4)CN5)c(F)c3)cc21", "recombinant human DPPI (Homo sapiens (Human))", "No"]
]}

In plain terms, does "N#C[C@H](Cc1ccc(-c2csc(C(N)=O)c2)cc1F)NC(=O)C12CCC(CC1)CN2" come in under 20 nM for IC50?
Yes

Lab note: IC50 threshold 20 nM. Does this compound come in strictly under it? "CN1C(=O)Cc2ccc(-c3ccc(C[C@@H](C#N)NC(=O)[C@]45CC[C@@H](CN4)C5)cc3)cc21"
No

Record "CS(=O)(=O)c1ccc(-c2ccc(C[C@@H](C#N)NC(=O)C34CCC(CC3)CN4)c(F)c2)cc1" : is its IC50 strictly below 20 nM?
Yes
